Test: NCI Yeast Anticancer Drug Screen. Data for the sgs1 mgt1 strain (AID 161);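 further: 0% = growth of cultures given vehicle only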
Conditions: S. cerevisiae sgs1 mgt1 strain, at 50.0 µM, hits give high values
Compounds without any hit were thinned out: in the full panel of roughly 79,000, 15% have a hit. Where a SMILES comes first, the peptide text is derived from it.
Measured parameter: growth inhibition (%)
One number for each entry, in %.

Worked set:
>>> result_number("CC1=COC(=O)[C@@H]2[C@@H](C)CC[C@@H]12")
-9.6
>>> result_number("Oc1ccc(-c2nc(-c3ccccc3)c(-c3ccccc3)[nH]2)cc1")
-1.1
>>> result_number("CC(=O)OCC(OC(C)=O)C(OC(C)=O)C(/C=C/N=[N+]([O-])c1ccccc1)OC(C)=O (centres undefined)")
45.5
>>> result_number("O=C(O)[Si](c1ccccc1)(c1ccccc1)c1ccccc1")
39.6
>>> result_number("COc1ccccc1NC(=O)N1CCN(c2cccc(C)c2)CC1")
12.6
>>> result_number("CS(=O)c1ccc(C(F)(F)F)cc1C(=O)O (centres undefined)")
9.7
>>> result_number("NC(=O)c1ncn(C2CCC(CP(=O)(O)O)C2)c1N (centres undefined)")
-9.55
>>> result_number("Cc1cccc(N=C2NC(=O)C(CC(=O)Nc3ccc(Cl)cc3C)S2)c1 (centres undefined)")
1.95
>>> result_number("Cc1cc(=O)oc2cc(OCCCOc3ccc4c(C)cc(=O)oc4c3)ccc12")
-2.1
>>> result_number("N#CCC(=O)NCc1ccncc1")
-24.7

Give one value of growth inhibition per listed molecule.
1. ClCCn1nc2c(c1-c1ccccc1)CCc1ccccc1-2
2. Cc1ccc2c(c1)OC(=O)CC2
3. COC(=O)C(NC(=O)C(NC(=O)C(N)C(C)C)C(C)C)C(C)C (stereo not drawn) (H-Val-Val-Val-OMe; configuration not given here)
4. COC(=O)C(Cl)(Cl)c1nc(NC(C)=O)[nH]c(=O)c1Cl
5. N#Cc1ccc(OCCCCCOc2ccc(C#N)cc2I)c(I)c1
6. N/C(=N\N=C\C1CC2C=CC1C2)NO (centres undefined)
7. O=C1C(Cl)N(c2ccc(Cl)cc2Cl)C1c1c[nH]c2ccccc12 (centres undefined)

*A*
1: -10.4; 2: -3.25; 3: 5.4; 4: 3.65; 5: -8; 6: -9.8; 7: -16.7

Give one value of growth inhibition per listed molecule.
1. CCOC(CN(CC)CC)OCC
2. CS(=O)(=O)OC1C(O)C(O)OC(CO)C1O (centres undefined)

*A*
[-5.15, 4.5]

----------
Assay: NCI Yeast Anticancer Drug Screen. Data for the mec2-1 strain (AID 157)
Settings: S. cerevisiae mec2-1 strain, at 50.0 µM, hits give high values
Method: Growth inhibition of yeast strains with defined genetic alterations is measured as a screen for potential anti-cancer activity. Selected strains with alterations in DNA damage repair or cell cycle control were exposed to compounds and growth inhibition was measured relative to vehicle treated controls. The strain used in this assay is mec2-1
This is part of a sample that, as a whole, favours compounds with a hit. Of some 79,000 tested, about 15% had one in any assay.
Kindly supply the reported growth inhibition values for the records listed here.
Give bare numbers, in %.

Worked set:
>>> result_number("Clc1cc(Cl)nc(Cl)n1")
-7.1
>>> result_number("CCCCOC(=O)C(=O)OCCCC")
-2.9
>>> result_number("O=C(CSc1nnc(-c2ccc(N=Cc3ccc(Cl)cc3)cc2)o1)Nc1ccc([N+](=O)[O-])cc1")
-7.65

Give one value of growth inhibition per listed molecule.
1. COc1ccc(C(O)C2c3c(cc4c(c3OC)OCO4)CCN2C)c(CO)c1OC (stereo not given)
2. Cc1nn(C)c(=O)c(N)c1-c1cc(-c2ccc(Cl)cc2)n[nH]1
3. COc1cc(CN2CCN(CCO)CC2)c(O)c(CN2CCN(CCO)CC2)c1
4. N=C(N)c1ccc(N=Nc2ccc(N)cc2N)cc1
5. COc1ccc(/C=C2\N=C(c3ccccc3)OC2=O)c(Cl)c1OC

*A*
1: 12.8; 2: 4.45; 3: 1.55; 4: -3.75; 5: -3.5

Give one value of growth inhibition per listed molecule.
1. O=C(O)C#Cc1cccc(Cl)c1
2. CNc1cccc2c1C(=O)c1ccccc1C2=O
3. CC1=CC(=C(c2cc(C)c(O)c(C(=O)O)c2)c2cc(C)c(O)c(C(=O)O)c2)C=C(C(=O)O)C1=O
4. O=C(O)C(CO)C(CO)C(=O)O (stereo not given)
5. C[N+](C)(C)CC(=O)N/N=C(/Cc1cc(=O)oc2cc(O)ccc12)C(=O)Nc1ccc(Cl)cc1
6. O=C1c2ccc3ccccc3c2C(=O)c2ccc3ccccc3c21
7. CC1=C(C)C(=O)C=CC1=O

*A*
1. -24.3
2. -9.95
3. -28.1
4. -14.4
5. -2.45
6. -4.5
7. 6.3
